system: SARS-CoV-2; assay: microbe, parasite or virus in culture; assay type: cell-based; conditions: Severe acute respiratory syndrome coronavirus 2, Calu-3
measured.metric: IC50

[
  {
    "cpd.smiles": "CCCCCCCCCCC[C@@H](C[C@@H]1OC(=O)[C@H]1CCCCCC)OC(=O)[C@H](CC(C)C)NC=O",
    "IC50": "21.2 µM"
  }
]

Given the compound "Nc1ncc(-c2ccnc(Nc3ccncc3)n2)c(CC2CC2)n1" , what is its reported IC50? 0.12 µM

Given the compound "CC(C)(O)CNc1ncc(-c2ccnc(Nc3ccncc3)n2)c(CC2CC2)n1" , what is its reported IC50? 0.55 µM

Given the compound "C[C@@H]1COCCN1c1cc(=O)n2c(n1)N(Cc1cncc(Cl)c1)[C@H](C(F)(F)F)CC2" , what is its reported IC50? 0.376 µM
